# Tested on: SARS-CoV-2 (WA1)
# method_summary: microbe, parasite or virus in culture
# Type: cell-based
# test_conditions: Severe acute respiratory syndrome coronavirus 2, Vero C1008
Structures can show the parent of a compound that is named as a salt.
quantity_measured: IC50 (nM)
Could you give me the number in nM? Just the number is fine.

Examples from the recorded data:
COc1ccc(Nc2nc(Nc3cccc(C)c3)nc(N3CCOCC3)n2)cc1 [hydrochloride] = 230
Cc1ccc(Nc2nc(Nc3cccc(F)c3)nc(N3CCOCC3)n2)cc1Cl = 150

(Q) May I ask what IC50 has been recorded for Cc1ccc(Nc2nc(N3CCOCC3)nc(N3CCOCC3)n2)cc1C ?
(A) 80

(Q) May I ask what IC50 has been recorded for Cc1ccc(Nc2nc(Nc3ccc(C)c(C)c3)nc(N3CCOCC3)n2)cc1 ?
(A) 120

(Q) May I ask what IC50 has been recorded for Cc1ccc(Nc2nc(Nc3cccc(C(F)(F)F)c3)nc(N3CCOCC3)n2)cc1C ?
(A) 130
